Exercise: for every item that follows, state its recorded pIC50.
measured.on: purified recombinantly expressed human SSAO (Homo sapiens, UniProt Q16853)
Sequence (Q16853 1-763): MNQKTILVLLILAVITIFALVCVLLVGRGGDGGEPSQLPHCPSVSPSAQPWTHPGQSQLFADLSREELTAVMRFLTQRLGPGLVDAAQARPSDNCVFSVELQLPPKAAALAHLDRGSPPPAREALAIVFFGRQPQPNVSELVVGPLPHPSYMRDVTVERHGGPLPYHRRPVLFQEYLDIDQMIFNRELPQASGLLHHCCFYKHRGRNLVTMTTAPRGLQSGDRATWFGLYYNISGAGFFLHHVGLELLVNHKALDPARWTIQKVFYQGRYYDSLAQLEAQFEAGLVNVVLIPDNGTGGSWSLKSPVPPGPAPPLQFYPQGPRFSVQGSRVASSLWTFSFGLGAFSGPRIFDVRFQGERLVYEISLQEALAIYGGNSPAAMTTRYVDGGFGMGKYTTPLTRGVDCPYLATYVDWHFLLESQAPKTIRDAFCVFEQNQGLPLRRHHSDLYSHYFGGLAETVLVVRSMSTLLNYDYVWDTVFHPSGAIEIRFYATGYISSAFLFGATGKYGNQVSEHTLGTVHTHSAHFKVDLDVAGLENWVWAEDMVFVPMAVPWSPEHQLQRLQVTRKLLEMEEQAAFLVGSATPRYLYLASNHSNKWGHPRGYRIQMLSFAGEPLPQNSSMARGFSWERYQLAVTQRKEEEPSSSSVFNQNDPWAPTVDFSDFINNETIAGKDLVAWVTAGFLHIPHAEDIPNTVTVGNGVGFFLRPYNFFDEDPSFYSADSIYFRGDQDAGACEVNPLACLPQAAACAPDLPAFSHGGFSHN
test.method.notes: SSAO enzyme inhibition assay (benzylamine substrate; hydrogen peroxide/HRP-coupled or 14C aldehyde detection)
condition.description: SSAO inhibitory activity, RT
pIC50: −log10 of the molar value. Where a name gives a salt, the structure may show the parent alone.

So what's the measured pIC50 for this one? Fc1cncc(-c2cc3ccncc3n2-c2ccc(Cl)cc2)c1 [Example 148]
> 7.30

Ok, now Clc1ccc(-n2c(-c3cnc(NC4CCOCC4)nc3)cc3ccncc32)cc1 [Example 139]
> 7.30

Ok, now Cc1ccc(-n2c(-c3ccc(N4CCOCC4)nc3)nc3ccncc32)cn1 [Example 64]
5.92 to 6.70

Ok, now Nc1ccc(-c2nc3ccncc3n2-c2ccc(Cl)cc2)cn1 [Example 110]
5.92 to 6.70

Ok, now Cc1cc(F)ccc1-n1c(-c2cnc(N3CCOCC3)nc2)nc2ccncc21 [Example 55]
> 7.30

Ok, now O=C1CN(c2ncc(-c3nc4ccncc4n3-c3ccc(Cl)cc3)cn2)CCN1 [Example 13]
> 7.30

Ok, now FC(F)(F)c1ccc(-n2c(-c3ccc(N4CCOCC4)nc3)nc3ccncc32)cc1 [Example 66]
6.70 to 7.30

Ok, now Clc1ccc(-n2c(-c3cnc(N4CCOCC4)nc3)nc3ccncc32)cc1 [Example 51]
> 7.30

Ok, now Cc1ccc(-n2c(-c3cnc(N4CCOCC4)nc3)nc3ccncc32)c(F)c1 [Example 53]
5.92 to 6.70

Ok, now Cc1ccc(-n2c(-c3ccc(N4C[C@@H](C)O[C@@H](C)C4)nc3)nc3ccncc32)cn1 [Example 103, tris(trifluoroacetic acid)]
6.70 to 7.30

Ok, now Fc1ccc(-n2c(-c3ccc(C4CCOCC4)nn3)nc3ccncc32)cc1 [Example 15]
6.70 to 7.30

Ok, now Fc1cc(-n2c(-c3cnc(N4CCOCC4)nc3)nc3ccncc32)ccc1Cl [Example 74]
5.92 to 6.70

Ok, now Fc1ccc(-n2c(-c3cnc(N4CCOCC4)nc3)nc3ccncc32)c(F)c1 [Example 78]
> 7.30

Ok, now Oc1ccc(-n2c(-c3ccc(N4CCOCC4)nc3)nc3ccncc32)cc1 [Example 65]
> 7.30

Ok, now Cc1ccc(-n2c(-c3ccc(N4CCOCC4)nc3)nc3ccncc32)cc1 [Example 63]
5.92 to 6.70

Ok, now Clc1ccc(-n2c(-c3ccc(N4CCOCC4)nn3)nc3ccncc32)cc1 [Example 4]
> 7.30

Ok, now Clc1ccc(-n2c(-c3ccc(N4CCOCC4)nc3)nc3ccncc32)nc1 [Example 81]
> 7.30

Ok, now Brc1ccc(-n2c(-c3cnc(N4CCOCC4)nc3)cc3ccncc32)cc1 [Example 133]
> 7.30

Ok, now NC(=O)N1CCN(c2ncc(-c3nc4ccncc4n3-c3ccc(Cl)cc3)o2)CC1 [Example 93]
6.70 to 7.30

Ok, now NC(=O)N1CCN(c2ccc(-c3nc4ccncc4n3-c3ccc(F)cc3)cn2)CC1 [Example 92]
> 7.30

Ok, now Cc1ccc(-n2c(-c3cnc(N4CCOCC4)nc3)nc3ccncc32)cc1 [Example 57]
6.70 to 7.30

Ok, now CN(C)c1cc(-c2nc3ccncc3n2-c2ccc(F)cc2)ccn1 [Example 109]
5.92 to 6.70

Ok, now Clc1ccc(-n2c(-c3cccnc3)cc3ccncc32)cc1 [Example 122]
6.70 to 7.30

Ok, now O=c1cc(-c2cc3ccncc3n2-c2ccccc2)ccn1C1CC1 [Example 155]
5.92 to 6.70

Ok, now CN1CCN(Cc2cccc(-c3nc4ccncc4n3-c3ccc(Cl)cc3)c2)CC1 [Example 45, formic acid]
5.92 to 6.70

Ok, now Clc1ccc(-n2c(-c3csc(N4CCNCC4)n3)nc3ccncc32)cc1 [Example 17, dihydrochloride]
5.92 to 6.70

Ok, now CC1CN(c2ccc(-c3nc4ccncc4n3-c3ccc(F)cc3)cn2)CCO1 (centres unmarked) [Example 70]
> 7.30

Ok, now Clc1ccc(-n2c(-c3cnc(NC4CCOCC4)nc3)nc3ccncc32)cc1 [Example 11, bis(trifluoroacetic acid)]
> 7.30

Ok, now Cc1ccc(-n2c(-c3cnc(N4CCOCC4)cc3C)nc3ccncc32)cn1 [Example 107]
> 7.30

Ok, now NC1CCN(c2ccc(-c3nc4ccncc4n3-c3ccc(Cl)cc3)cn2)CC1 [Example 8]
> 7.30

Ok, now NC(=O)N1CCN(c2ccc(-c3nc4ccncc4n3-c3ccc(Cl)cc3)cn2)CC1 [Example 90, dihydrochloride]
> 7.30

Ok, now COCCN(C)c1ncc(-c2nc3ccncc3n2-c2ccc(C)cc2)cn1 [Example 117]
5.92 to 6.70

Ok, now Cc1cc(F)ccc1-n1c(-c2ccc(N3CCOCC3)nc2)nc2ccncc21 [Example 62]
6.70 to 7.30

Ok, now CS(=O)(=O)N1CCN(c2ccc(-c3nc4ccncc4n3-c3ccc(F)cc3)cn2)CC1 [Example 89]
> 7.30

Ok, now Clc1ccc(-n2c(-c3ccccn3)cc3ccncc32)cc1 [Example 121]
> 7.30

###

measured.on: purified recombinantly expressed human SSAO (Homo sapiens)
Sequence (Q16853 1-763): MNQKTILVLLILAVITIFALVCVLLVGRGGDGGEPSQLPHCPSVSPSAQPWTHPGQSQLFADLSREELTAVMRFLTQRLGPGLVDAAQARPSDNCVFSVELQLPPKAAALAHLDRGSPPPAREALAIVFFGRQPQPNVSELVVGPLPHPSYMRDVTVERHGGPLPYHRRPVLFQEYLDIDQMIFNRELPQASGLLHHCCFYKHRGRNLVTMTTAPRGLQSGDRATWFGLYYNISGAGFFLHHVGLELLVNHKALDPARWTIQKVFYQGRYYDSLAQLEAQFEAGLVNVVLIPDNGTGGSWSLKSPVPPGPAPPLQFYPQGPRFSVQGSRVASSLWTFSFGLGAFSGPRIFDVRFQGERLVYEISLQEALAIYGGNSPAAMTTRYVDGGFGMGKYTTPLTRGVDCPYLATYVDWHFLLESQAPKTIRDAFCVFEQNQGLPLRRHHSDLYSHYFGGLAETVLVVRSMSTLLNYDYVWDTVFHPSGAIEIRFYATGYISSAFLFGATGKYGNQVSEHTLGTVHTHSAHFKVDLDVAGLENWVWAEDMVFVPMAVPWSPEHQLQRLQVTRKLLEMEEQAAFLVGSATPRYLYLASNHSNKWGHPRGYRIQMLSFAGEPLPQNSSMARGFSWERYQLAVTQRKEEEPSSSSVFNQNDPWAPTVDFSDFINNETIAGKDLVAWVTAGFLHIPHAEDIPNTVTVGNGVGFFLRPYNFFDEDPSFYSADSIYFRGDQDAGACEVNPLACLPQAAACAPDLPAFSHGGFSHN
test.method.notes: SSAO enzyme inhibition assay (benzylamine substrate; hydrogen peroxide/HRP-coupled or 14C aldehyde detection)
condition.description: SSAO inhibitory activity, RT
parameter.measured: IC50

So what's the measured IC50 for this one? O=c1cc(-c2cc3ccncc3n2-c2ccc(Cl)cc2)ccn1C1CC1
< 0.05 µM

Ok, now Cn1cc(-c2cc3ccncc3n2-c2ccc(Cl)cc2)cn1
< 0.05 µM

Ok, now NC(=O)N1CCCN(c2ccc(-c3nc4ccncc4n3-c3ccc(F)cc3)cn2)CC1
0.2 to 1.2 µM

Ok, now O=C(NC1CC1)c1ccc(-c2nc3ccncc3n2-c2ccc(Cl)cc2)cn1
0.2 to 1.2 µM

Ok, now Fc1ccc(-n2c(-c3ccc(OC4CCOCC4)nc3)nc3ccncc32)cc1
< 0.05 µM

Ok, now Fc1ccc(-n2c(-c3cnc(N4CCOCC4)nc3)nc3ccncc32)nc1
0.05 to 0.2 µM

Ok, now CN(C)c1ncc(-c2nc3ccncc3n2-c2ccc(Cl)cc2F)cn1
< 0.05 µM

Ok, now CN1CCN(c2ccc(-c3nc4ccncc4n3-c3ccc(F)cc3)cn2)CC1=O
0.05 to 0.2 µM

Ok, now Clc1ccc(-n2c(-c3cnc(N4CCOCC4)nc3)nc3ccncc32)nc1
< 0.05 µM

Ok, now Fc1ccc(-n2c(-c3cnc(NC4CCOCC4)nc3)nc3ccncc32)cc1
0.05 to 0.2 µM

Ok, now Clc1ccc(-n2c(-c3ccncc3)nc3ccncc32)cc1
0.2 to 1.2 µM

Ok, now Clc1ccc(-n2c(-c3cnc(N4CCOCC4)nc3)cc3ccncc32)cc1
< 0.05 µM
